Hello, the source for this data is ChEMBL document CHEMBL4118253, in case you need it.

- Tested on: Yellow fever virus
- Measurement Description: Antiviral activity against Yellow fever virus infected in African green monkey Vero cells assessed as inhibition of virus-induced cytopathicity
- Format: functional, organism-based
Measurement Kind: EC50

Query string: Can you share its EC50? I mean this compound: C/C(=C\CP(=O)(N[C@@H](C)C(=O)OCc1ccccc1)Oc1cccc2c1CCCC2)Cn1ccc(=O)[nH]c1=O (stereo partly drawn)
Result string: > 100 µM

Query string: Continue with C/C(=C/CP(=O)(N[C@@H](C)C(=O)OC(C)C)Oc1cccc2ccccc12)Cn1cc(C)c(=O)[nH]c1=O (stereo partly drawn)
Result string: > 100 µM

Query string: Continue with NC(=O)c1ncn([C@@H]2O[C@H](CO)[C@@H](O)[C@H]2O)n1
Result string: > 250 µM
